The measurements presented in this section are drawn from patent US20070218069A1.

System name: T1, K48-linked diubiquitin (human, UniProt P0CG48 1-76, isopeptide bond between Lys48 of one ubiquitin and the C-terminal Gly of the other)
T1 construct: Boston Biochem
Experiment summary: SPR Biacore, antigen immobilized
Measurement kind: koff (s⁻¹)
Give the value in s⁻¹ but do not write s⁻¹ after it.

Indicate its recorded koff; the binder in question is Fab apu2.06 (Fab, V domains shown) VH: EVQLVESGGGLVQPGGSLRLSCAASGFNISYSSMHWVRQAPGKGLEWVASIYSYYSYTSYADSVKGRFTISADTSKNTAYLQMNSLRAEDTAVYYCARGYSWFNAIDYWGQGTLVTVSS VL: DIQMTQSPSSLSASVGDRVTITCRASQSVSSAVAWYQQKPGKAPKLLIYSASSLYSGVPSRFSGSRSGTDFTLTISSLQPEDFATYYCQQSSYSSLITFGQGTKVEIK
0.0024

Please supply the value of reported koff for the item Fab apu2.04 (Fab, V domains shown) VH: EVQLVESGGGLVQPGGSLRLSCAASGFNISYSSMHWVRQAPGKGLEWVASIYSYYSYTSYADSVKGRFTISADTSKNTAYLQMNSLRAEDTAVYYCARSYSYSFGMDYWGQGTLVTVSS VL: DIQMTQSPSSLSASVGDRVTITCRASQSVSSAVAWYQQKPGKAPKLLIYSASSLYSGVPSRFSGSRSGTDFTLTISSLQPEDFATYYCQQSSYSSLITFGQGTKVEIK
0.00939

Name the recorded koff of the item Fab apu2.03 (Fab, V domains shown) VH: EVQLVESGGGLVQPGGSLRLSCAASGFNISYSSMHWVRQAPGKGLEWVASIYSYYSYTSYADSVKGRFTISADTSKNTAYLQMNSLRAEDTAVYYCARSYSYSLAFDYWGQGTLVTVSS VL: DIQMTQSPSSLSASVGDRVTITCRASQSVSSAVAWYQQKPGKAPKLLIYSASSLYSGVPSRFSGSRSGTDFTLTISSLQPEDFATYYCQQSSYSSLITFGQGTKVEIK in your answer.
0.00266

Annotate the binder Fab apu2.05 (Fab, V domains shown) VH: EVQLVESGGGLVQPGGSLRLSCAASGFNISYSSMHWVRQAPGKGLEWVASIYSYYSYTSYADSVKGRFTISADTSKNTAYLQMNSLRAEDTAVYYCARSYSYRMAFDYWGQGTLVTVSS VL: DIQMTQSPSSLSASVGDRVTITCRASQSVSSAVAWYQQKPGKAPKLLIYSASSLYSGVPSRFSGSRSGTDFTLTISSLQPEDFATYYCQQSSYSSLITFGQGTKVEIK with its measured koff.
0.00609

Provide only the value of recorded koff for Fab apu2.02 (Fab, V domains shown) VH: EVQLVESGGGLVQPGGSLRLSCAASGFNIFYGGIHWVRQAPGKGLEWVASIYSYYSYTSYADSVKGRFTISADTSKNTAYLQMNSLRAEDTAVYYCARSYSYYSAMDYWGQGTLVTVSS VL: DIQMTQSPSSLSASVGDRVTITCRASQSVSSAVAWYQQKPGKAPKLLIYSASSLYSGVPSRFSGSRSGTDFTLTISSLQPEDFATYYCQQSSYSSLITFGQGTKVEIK
0.0101
